# protocol.details: Clearance in Han-Wistar rat blood at 1 mg/kg, iv by LC-MS/MS analysis
# Type: ADME, organism-based
# condition.context: whole blood
measured.endpoint: clearance (mL/min/kg)

smiles	unit.of.measure	clearance
O=C(O)CCn1c(=O)oc2cc(Cl)c(Cl)cc21	mL/min/kg	4.3

(1) Cc1ccc([C@@H](C)Oc2cc3onc(CCC(=O)O)c3cc2Cl)nc1
(2) C[C@@H](Oc1cc2onc(CCC(=O)O)c2cc1Cl)c1ccc(Cl)cn1
(3) Cc1ccc([C@@H](C)Oc2cc3onc(CCC(=O)O)c3cc2Cl)nn1
Arrange the 3 entries by clearance so the values rise. Sort and list the labels as requested.
2, 1, 3

* * *

# protocol.details: Lipophilicity, log D of the compound at pH 7.4 by RP-HPLC analysis
# Assay type: physicochemical
# condition.context: buffer
measured.endpoint: logD

smiles	measured.endpoint	recorded.measurement
C[C@@H](Oc1cc2sc(=O)n(CCC(=O)O)c2cc1Cl)c1ccccn1	logD	1.81

(P) C[C@@H](Oc1cc2oc(=O)n(CCC(=O)O)c2cc1Cl)c1ncccn1.NC(CO)(CO)CO
(Q) Cc1cc2oc(=O)n(CCC(=O)O)c2cc1Cl.NC(CO)(CO)CO
Of the two listed items, which has the higher logD? First: P Second: Q Mark your answer with the label of the selected entry.
Q

* * *

# study.system: serum albumin (Homo sapiens)
# Sequence (P02768 whole entry): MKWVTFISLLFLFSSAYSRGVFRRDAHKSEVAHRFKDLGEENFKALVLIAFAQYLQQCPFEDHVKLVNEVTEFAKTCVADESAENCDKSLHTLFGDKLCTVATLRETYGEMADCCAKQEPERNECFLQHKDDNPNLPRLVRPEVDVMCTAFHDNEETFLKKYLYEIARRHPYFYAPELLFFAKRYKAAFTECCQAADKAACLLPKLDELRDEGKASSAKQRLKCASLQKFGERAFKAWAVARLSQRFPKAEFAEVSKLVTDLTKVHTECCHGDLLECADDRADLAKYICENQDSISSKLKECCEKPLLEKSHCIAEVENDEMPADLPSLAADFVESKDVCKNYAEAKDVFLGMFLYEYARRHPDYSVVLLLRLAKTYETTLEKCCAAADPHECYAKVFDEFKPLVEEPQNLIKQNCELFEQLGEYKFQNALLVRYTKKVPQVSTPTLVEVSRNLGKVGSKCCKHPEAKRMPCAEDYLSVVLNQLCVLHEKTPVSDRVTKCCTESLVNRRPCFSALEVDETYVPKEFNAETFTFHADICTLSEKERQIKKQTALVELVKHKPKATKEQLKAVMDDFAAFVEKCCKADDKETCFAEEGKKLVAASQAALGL
# protocol.details: Binding affinity to human serum albumin by HPLC analysis
# Assay type: ADME
# condition.context: read-out: PB (converted)
measured.endpoint: fraction unbound

compound	study.system	fraction unbound
NC(CO)(CO)CO.O=C(O)CCn1c(=O)oc2cc(OC3CC3)c(Cl)cc21	serum albumin (Homo sapiens)	0.057
C[C@@H](Oc1cc2oc(=O)n(CCC(=O)O)c2cc1Cl)c1cccnn1	serum albumin (Homo sapiens)	0.409
C[C@@H](Oc1cc2onc(CCC(=O)O)c2cc1Cl)c1ccc(F)cn1	serum albumin (Homo sapiens)	0.017
O=C(O)CCn1c(=O)oc2cc(OCc3ccccc3)c(Cl)cc21	serum albumin (Homo sapiens)	0.017
CC(Oc1cc2oc(=O)n(CCC(=O)O)c2cc1Cl)c1ccccn1.NC(CO)(CO)CO (configuration not stated)	serum albumin (Homo sapiens)	0.129

(a) CC(C)Cc1cc2oc(=O)n(CCC(=O)O)c2cc1Cl.NC(CO)(CO)CO
(b) Cc1cc2oc(=O)n(CCC(=O)O)c2cc1Cl.NC(CO)(CO)CO
Task for the reader: decide whether a or b has the larger fraction unbound. Provide the label of your selected option as the answer.
b

(P) C[C@@H](Oc1cc2oc(=O)n(CCC(=O)O)c2cc1Cl)c1ncccn1.NC(CO)(CO)CO
(Q) COc1cc2oc(=O)n(CCC(=O)O)c2cc1Cl
(R) NC(CO)(CO)CO.O=C(O)CCn1c(=O)oc2cc(OCC3CCC3)c(Cl)cc21
(S) C[C@@H](Oc1cc2oc(=O)n(CCC(=O)O)c2cc1Cl)c1ccccn1.NC(CO)(CO)CO
Arrange these compounds by their fraction unbound, starting with the largest number. // respond by listing labels in the order requested
P, Q, S, R
(P: 0.409, Q: 0.11, S: 0.067, R: 0.019)

(a) NC(CO)(CO)CO.O=C(O)CCn1c(=O)oc2cc(OCc3ccccn3)c(Cl)cc21
(b) C[C@@H](Oc1cc2oc(=O)n(CCC(=O)O)c2cc1Cl)c1ncco1.NC(CO)(CO)CO
Lab note: check whether a or b has the lower measured fraction unbound. Please respond with the label that marks your chosen entry.
a

(a) C[C@@H](Oc1cc2oc(=O)n(CCC(=O)O)c2cc1Cl)c1ccc(F)cn1.NC(CO)(CO)CO
(b) C[C@@H](Oc1cc2onc(CCC(=O)O)c2cc1Cl)c1ccc(Cl)cn1.NC(CO)(CO)CO
When their fraction unbound values are compared, which is larger, a or b ? Write down the label of the entry you select.
a
